Assay: Quantitative High-Throughput drug screen in 47 multiple myeloma cell lines against the NCATS MIPE library collection: JIM3_ECACC cell viability assay (AID 1918963; further: nearly all actives have a fitted effect of over 35% in size)
Conditions: JIM3 myeloma viability, CellTiter-Glo ATP, 48 h; series mostly up to 45.8 µM
Records with an inconclusive call do not appear. The source made the active and inactive calls. The call rests on the fitted dose curve; in most records, active means well fitted cell-killing curve with a large enough effect; inconclusive means small, poorly fitted or top-dose-only effect; inactive means no such curve, though single readings can be large or run the other way.
Possible outcomes: Y (active), N (inactive)

>  <chemical-structure>
COc1cc2ncnc(Nc3cccc(Br)c3)c2cc1OC

>  <label>
Y

$$$$
>  <chemical-structure>
c1cncc(CN2CCC(n3ncc4c(N5CCOCC5)nc(-c5ccc6[nH]ccc6c5)nc43)CC2)c1

>  <label>
Y

$$$$
>  <chemical-structure>
CCOC(=O)C=C[C@H](C[C@@H]1CCNC1=O)NC(=O)[C@@H](CC(=O)[C@@H](NC(=O)c1cc(C)on1)C(C)C)Cc1ccc(F)cc1

>  <label>
N

$$$$
>  <chemical-structure>
CCOC(=O)N1CCN([N+]([O-])=NOc2ccc([N+](=O)[O-])cc2C#N)CC1

>  <label>
Y

$$$$
>  <chemical-structure>
Nc1ccc(C(=O)Nc2cccc(-c3nc(N4CCOCC4)c4oc5ncccc5c4n3)c2)cn1

>  <label>
Y

$$$$
>  <chemical-structure>
O=C(NCc1ccccc1)[C@H](Cc1ccccc1)NC(=O)[C@@H]1O[C@@H]1C(=O)NCCc1ccc(O)cc1

>  <label>
N

$$$$
>  <chemical-structure>
c1cc(CN2CCCNCCNCCCNCC2)ccc1CN1CCCNCCNCCCNCC1

>  <label>
N

$$$$
>  <chemical-structure>
COc1ccc(Nc2cc(-c3cnc(N)nc3)nc(N3CCOCC3)n2)cn1

>  <label>
Y

$$$$
>  <chemical-structure>
NC(=O)c1ncn([C@@H]2O[C@H](CO)[C@@H](O)[C@@H]2O)c1N

>  <label>
N

$$$$

---

Experiment: qHTS of pediatric cancer cell lines to identify multiple opportunities for drug repurposing: Primary screen for Rh18 cells (AID 1347102); further: nearly all actives have a fitted effect of over 65% in size; further: potency means the concentration at half of the fitted maximal effect
Details: Rh18 rhabdomyosarcoma viability, CellTiter-Glo luminescence, 48 h; series mostly up to 46 µM
Inconclusive results are not listed. Activity calls are given as the source filed them. The call rests on the fitted dose curve; in most records, active means well fitted cell-killing curve with a large enough effect; inconclusive means small, poorly fitted or top-dose-only effect; inactive means flat fitted curve, though single readings scatter.

>  <molecule>
NC(=O)c1ncn([C@@H]2O[C@H](CO)[C@@H](O)[C@@H]2O)c1N

>  <Potency>
inactive

$$$$
>  <molecule>
CO[C@@H]1[C@@H](O)[C@H](O)[C@@H](n2c3c(Cl)cccc3c3c4c(c5c6cccc(Cl)c6[nH]c5c32)C(=O)NC4=O)O[C@@H]1CO

>  <Potency>
2.09 µM (active)

$$$$
>  <molecule>
C=C(C)[C@@H]1CC[C@]2(C(=O)O)CC[C@]3(C)[C@H](CC[C@@H]4[C@@]5(C)CC[C@H](O)C(C)(C)[C@@H]5CC[C@]43C)[C@@H]12

>  <Potency>
inactive

$$$$
>  <molecule>
COC1=C2C[C@@H](C)C[C@H](OC)[C@@H](O)[C@@H](C)C=C(C)[C@H](OC(N)=O)[C@@H](OC)C=CC=C(C)C(=O)NC(=CC1=O)C2=O

>  <Potency>
5.9 µM (active)

$$$$
>  <molecule>
C=C1CCC2[C@](C)(CO)C(O)CC[C@]2(C)C1CC=C1C(=O)OCC1O (stereo partly specified)

>  <Potency>
inactive

$$$$
>  <molecule>
C[C@@]12C[C@@]3(O)O[C@@H](O1)[C@]1(COC(=O)c4ccccc4)[C@@H]3C[C@@]12O[C@@H]1O[C@H](CO)[C@@H](O)[C@H](O)[C@@H]1O

>  <Potency>
inactive

$$$$
>  <molecule>
CC[C@H]1OC(=O)[C@H](C)[C@@H](O[C@H]2C[C@@](C)(OC)[C@@H](O)[C@H](C)O2)[C@H](C)[C@@H](O[C@@H]2O[C@H](C)C[C@H](N(C)C)[C@@H]2O)[C@](C)(OC)C[C@@H](C)C(=O)[C@H](C)[C@@H](O)[C@]1(C)O

>  <Potency>
inactive

$$$$
>  <molecule>
CC(C)N1[N]C(=C2C=c3cc(O)ccc3=N2)c2c(N)ncnc21

>  <Potency>
5.9 µM (active)

$$$$
>  <molecule>
COC1=C(OC)C(=O)C(CC=C(C)CCC=C(C)CCC=C(C)CCC=C(C)CCC=C(C)CCC=C(C)CCC=C(C)CCC=C(C)CCC=C(C)CCC=C(C)C)=C(C)C1=O

>  <Potency>
inactive

$$$$
>  <molecule>
COc1cc(C[C@@H](CO)[C@H](CO)Cc2ccc(O)c(OC)c2)ccc1O

>  <Potency>
4.18 µM (active)

$$$$
>  <molecule>
CS(=O)(=O)N1CCc2c(-c3cnc(N)nc3)nc(N3CCOCC3)nc21

>  <Potency>
0.372 µM (active)

$$$$
>  <molecule>
CC(=O)OCC(=O)[C@@]12N=C(C)O[C@H]1C[C@H]1[C@@H]3CCC4=CC(=O)C=C[C@]4(C)[C@@H]3[C@@H](O)C[C@@]12C

>  <Potency>
inactive

$$$$
>  <molecule>
COc1ccc2cc([S+]([O-])Cc3ncc(C)c(OC)c3C)nc2c1

>  <Potency>
inactive

$$$$
>  <molecule>
Cc1cnc(Nc2ccc(CN3CCOCC3)cc2)nc1Nc1cccc(S(=O)(=O)NC(C)(C)C)c1

>  <Potency>
3.72 µM (active)

$$$$
>  <molecule>
N[C@H]1CN(c2c(F)cc3c(=O)c(C(=O)O)cn(C4C[C@@H]4F)c3c2Cl)CC12CC2 (stereo partly specified)

>  <Potency>
inactive

$$$$
>  <molecule>
CC(=O)O[C@]1(C(C)=O)CC[C@H]2[C@@H]3C=C(C)C4=CC(=O)CC[C@]4(C)[C@@H]3CC[C@@]21C

>  <Potency>
13.2 µM (active)

$$$$
>  <molecule>
Cc1noc(-c2ccc(CSCCC(=O)O)cc2)c1NC(=O)OC(C)c1ccccc1Cl (stereo unspecified)

>  <Potency>
inactive

$$$$
>  <molecule>
CC[C@H](CC[C@@H](C)[C@H]1CC[C@H]2[C@@H]3CC=C4C[C@@H](O)CC[C@]4(C)[C@@H]3CC[C@]12C)C(C)C

>  <Potency>
inactive

$$$$
>  <molecule>
CC(C)(C)c1nc2c3cc[nH]c(=O)c3c3cc(F)ccc3c2[nH]1

>  <Potency>
inactive

$$$$
>  <molecule>
Nc1ccn(C[C@@H](CO)OCP(=O)(O)O)c(=O)n1

>  <Potency>
inactive

$$$$
>  <molecule>
C[N+](C)([O-])CCNc1ccc(NCC[N+](C)(C)[O-])c2c1C(=O)c1c(O)ccc(O)c1C2=O

>  <Potency>
inactive

$$$$
